Recorded refractive index, one value per entry.
assaySummary: refractive index (Na D-line) (dimensionless)
runConditions: 303.15 K; 100 kPa; Liquid; Standard Abbe refractometry

>  <compound>
CCCCCC(=O)[O-].CN(C)C(=[NH2+])N(C)C [1,1,3,3-tetramethylguanidinium hexanoate]

>  <refractive index>
1.466

$$$$
>  <compound>
CCCCC(=O)[O-].CN(C)C(=[NH2+])N(C)C [1,1,3,3-tetramethylguanidinium pentanoate]

>  <refractive index>
1.4736

$$$$
>  <compound>
CCCCCCC(=O)[O-].CN(C)C(=[NH2+])N(C)C [1,1,3,3-tetramethylguanidinium heptanoate]

>  <refractive index>
1.4759

$$$$
>  <compound>
CCCC(=O)[O-].CN(C)C(=[NH2+])N(C)C [1,1,3,3-tetramethylguanidinium butanoate]

>  <refractive index>
1.4794

$$$$
>  <compound>
CCCCCCCC(=O)[O-].CN(C)C(=[NH2+])N(C)C [1,1,3,3-tetramethylguanidinium octanoate]

>  <refractive index>
1.4631

$$$$

----------
runConditions: 313.15 K; 100 kPa; Liquid; Falling or rolling sphere viscometry
Rule: viscosity under 300 mPa·s gives Not satisfied, otherwise Satisfied.

>  <compound>
CCCCCCC(=O)[O-].CN(C)C(=[NH2+])N(C)C [1,1,3,3-tetramethylguanidinium heptanoate]

>  <assignedLabel>
Satisfied

$$$$
>  <compound>
CCCCCC(=O)[O-].CN(C)C(=[NH2+])N(C)C [1,1,3,3-tetramethylguanidinium hexanoate]

>  <assignedLabel>
Satisfied

$$$$
>  <compound>
CCCC(=O)[O-].CN(C)C(=[NH2+])N(C)C [1,1,3,3-tetramethylguanidinium butanoate]

>  <assignedLabel>
Satisfied

$$$$
>  <compound>
CCCCCCCC(=O)[O-].CN(C)C(=[NH2+])N(C)C [1,1,3,3-tetramethylguanidinium octanoate]

>  <assignedLabel>
Not satisfied

$$$$
>  <compound>
CCCCC(=O)[O-].CN(C)C(=[NH2+])N(C)C [1,1,3,3-tetramethylguanidinium pentanoate]

>  <assignedLabel>
Not satisfied

$$$$

----------
runConditions: 313.15 K; 100 kPa; Liquid; Single path-length method
reportedMetric: speed of sound (m/s)

>  <compound>
CCCC(=O)[O-].CN(C)C(=[NH2+])N(C)C [1,1,3,3-tetramethylguanidinium butanoate]

>  <numericReadout>
1525.1

$$$$
>  <compound>
CCCCCCC(=O)[O-].CN(C)C(=[NH2+])N(C)C [1,1,3,3-tetramethylguanidinium heptanoate]

>  <numericReadout>
1464.8

$$$$
>  <compound>
CCCCCCCC(=O)[O-].CN(C)C(=[NH2+])N(C)C [1,1,3,3-tetramethylguanidinium octanoate]

>  <numericReadout>
1433.5

$$$$
>  <compound>
CCCCC(=O)[O-].CN(C)C(=[NH2+])N(C)C [1,1,3,3-tetramethylguanidinium pentanoate]

>  <numericReadout>
1476.8

$$$$
>  <compound>
CCCCCC(=O)[O-].CN(C)C(=[NH2+])N(C)C [1,1,3,3-tetramethylguanidinium hexanoate]

>  <numericReadout>
1472.1

$$$$

----------
runConditions: 293.15 K; 100 kPa; Liquid; Single path-length method
Numbers after ± are expanded uncertainties.
# key: entry, value: speed of sound
reportedMetric: speed of sound

>  <compound>
CCCCC(=O)[O-].CN(C)C(=[NH2+])N(C)C [1,1,3,3-tetramethylguanidinium pentanoate]

>  <reportedMetric>
speed of sound

>  <result>
1540.6 ± 50 m/s

$$$$
>  <compound>
CCCCCCC(=O)[O-].CN(C)C(=[NH2+])N(C)C [1,1,3,3-tetramethylguanidinium heptanoate]

>  <reportedMetric>
speed of sound

>  <result>
1535.5 ± 50 m/s

$$$$
>  <compound>
CCCC(=O)[O-].CN(C)C(=[NH2+])N(C)C [1,1,3,3-tetramethylguanidinium butanoate]

>  <reportedMetric>
speed of sound

>  <result>
1593.6 ± 50 m/s

$$$$
>  <compound>
CCCCCCCC(=O)[O-].CN(C)C(=[NH2+])N(C)C [1,1,3,3-tetramethylguanidinium octanoate]

>  <reportedMetric>
speed of sound

>  <result>
1497.3 ± 50 m/s

$$$$
>  <compound>
CCCCCC(=O)[O-].CN(C)C(=[NH2+])N(C)C [1,1,3,3-tetramethylguanidinium hexanoate]

>  <reportedMetric>
speed of sound

>  <result>
1539 ± 50 m/s

$$$$

----------
assaySummary: refractive index (Na D-line) (dimensionless)
runConditions: 298.15 K; 100 kPa; Liquid; Standard Abbe refractometry
# refractive index per entry

>  <molecule>
CCCCC(=O)[O-].CN(C)C(=[NH2+])N(C)C [1,1,3,3-tetramethylguanidinium pentanoate]

>  <refractive index>
1.4758

$$$$
>  <molecule>
CCCCCC(=O)[O-].CN(C)C(=[NH2+])N(C)C [1,1,3,3-tetramethylguanidinium hexanoate]

>  <refractive index>
1.4684

$$$$
>  <molecule>
CCCC(=O)[O-].CN(C)C(=[NH2+])N(C)C [1,1,3,3-tetramethylguanidinium butanoate]

>  <refractive index>
1.4809

$$$$
>  <molecule>
CCCCCCCC(=O)[O-].CN(C)C(=[NH2+])N(C)C [1,1,3,3-tetramethylguanidinium octanoate]

>  <refractive index>
1.4657

$$$$
>  <molecule>
CCCCCCC(=O)[O-].CN(C)C(=[NH2+])N(C)C [1,1,3,3-tetramethylguanidinium heptanoate]

>  <refractive index>
1.4776

$$$$

----------
runConditions: 323.15 K; 100 kPa; Liquid; Falling or rolling sphere viscometry
Threshold-based label: viscosity under 200 mPa·s gives YES, viscosity not under 200 mPa·s gives NO.

>  <compound>
CCCCCCCC(=O)[O-].CN(C)C(=[NH2+])N(C)C [1,1,3,3-tetramethylguanidinium octanoate]

>  <assignedLabel>
YES

$$$$
>  <compound>
CCCCCC(=O)[O-].CN(C)C(=[NH2+])N(C)C [1,1,3,3-tetramethylguanidinium hexanoate]

>  <assignedLabel>
YES

$$$$
>  <compound>
CCCCCCC(=O)[O-].CN(C)C(=[NH2+])N(C)C [1,1,3,3-tetramethylguanidinium heptanoate]

>  <assignedLabel>
YES

$$$$
>  <compound>
CCCC(=O)[O-].CN(C)C(=[NH2+])N(C)C [1,1,3,3-tetramethylguanidinium butanoate]

>  <assignedLabel>
NO

$$$$
>  <compound>
CCCCC(=O)[O-].CN(C)C(=[NH2+])N(C)C [1,1,3,3-tetramethylguanidinium pentanoate]

>  <assignedLabel>
YES

$$$$

----------
runConditions: 338.15 K; 100 kPa; Liquid; Single path-length method

>  <compound>
CCCCCC(=O)[O-].CN(C)C(=[NH2+])N(C)C [1,1,3,3-tetramethylguanidinium hexanoate]

>  <speed of sound [m/s]>
1390.2

$$$$
>  <compound>
CCCCC(=O)[O-].CN(C)C(=[NH2+])N(C)C [1,1,3,3-tetramethylguanidinium pentanoate]

>  <speed of sound [m/s]>
1398.6

$$$$
>  <compound>
CCCC(=O)[O-].CN(C)C(=[NH2+])N(C)C [1,1,3,3-tetramethylguanidinium butanoate]

>  <speed of sound [m/s]>
1441.3

$$$$
>  <compound>
CCCCCCC(=O)[O-].CN(C)C(=[NH2+])N(C)C [1,1,3,3-tetramethylguanidinium heptanoate]

>  <speed of sound [m/s]>
1378.2

$$$$
>  <compound>
CCCCCCCC(=O)[O-].CN(C)C(=[NH2+])N(C)C [1,1,3,3-tetramethylguanidinium octanoate]

>  <speed of sound [m/s]>
1355.3

$$$$

----------
runConditions: 328.15 K; 100 kPa; Liquid; Single path-length method
reportedMetric: speed of sound (m/s)

>  <compound>
CCCCC(=O)[O-].CN(C)C(=[NH2+])N(C)C [1,1,3,3-tetramethylguanidinium pentanoate]

>  <measurementUnit>
m/s

>  <numericReadout>
1430.5

$$$$
>  <compound>
CCCCCC(=O)[O-].CN(C)C(=[NH2+])N(C)C [1,1,3,3-tetramethylguanidinium hexanoate]

>  <measurementUnit>
m/s

>  <numericReadout>
1423.6

$$$$
>  <compound>
CCCCCCC(=O)[O-].CN(C)C(=[NH2+])N(C)C [1,1,3,3-tetramethylguanidinium heptanoate]

>  <measurementUnit>
m/s

>  <numericReadout>
1413.6

$$$$
>  <compound>
CCCCCCCC(=O)[O-].CN(C)C(=[NH2+])N(C)C [1,1,3,3-tetramethylguanidinium octanoate]

>  <measurementUnit>
m/s

>  <numericReadout>
1387.2

$$$$
>  <compound>
CCCC(=O)[O-].CN(C)C(=[NH2+])N(C)C [1,1,3,3-tetramethylguanidinium butanoate]

>  <measurementUnit>
m/s

>  <numericReadout>
1475.5

$$$$

----------
runConditions: 333.15 K; 100 kPa; Liquid; Single path-length method
± gives the expanded uncertainty stated by the source.
reportedMetric: speed of sound

>  <compound>
CCCCC(=O)[O-].CN(C)C(=[NH2+])N(C)C [1,1,3,3-tetramethylguanidinium pentanoate]

>  <reportedMetric>
speed of sound

>  <result>
1414.6 ± 50 m/s

$$$$
>  <compound>
CCCC(=O)[O-].CN(C)C(=[NH2+])N(C)C [1,1,3,3-tetramethylguanidinium butanoate]

>  <reportedMetric>
speed of sound

>  <result>
1458.4 ± 50 m/s

$$$$
>  <compound>
CCCCCCC(=O)[O-].CN(C)C(=[NH2+])N(C)C [1,1,3,3-tetramethylguanidinium heptanoate]

>  <reportedMetric>
speed of sound

>  <result>
1395.9 ± 50 m/s

$$$$
>  <compound>
CCCCCC(=O)[O-].CN(C)C(=[NH2+])N(C)C [1,1,3,3-tetramethylguanidinium hexanoate]

>  <reportedMetric>
speed of sound

>  <result>
1406.9 ± 50 m/s

$$$$
>  <compound>
CCCCCCCC(=O)[O-].CN(C)C(=[NH2+])N(C)C [1,1,3,3-tetramethylguanidinium octanoate]

>  <reportedMetric>
speed of sound

>  <result>
1371.3 ± 50 m/s

$$$$
